// data source = paper PMC10397247

- assayed-target: T1, 4H3613-bH
- T1 chain: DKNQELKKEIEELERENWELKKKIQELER
- assay-remarks: two-hybrid library CCNG1;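 also: natural log of median RNA to DNA barcode read ratio; higher means stronger binding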
measured-metric: interaction score

Known results for binders:
binder | interaction score
DKNQELEKENEELKREIWELKKKIQELER [4H3277-bH] | -0.0624
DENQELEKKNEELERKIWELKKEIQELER [4H1449-bH] | -0.131
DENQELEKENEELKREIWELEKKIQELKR [4H1222-bH] | -1.34

1: DENQELEKKIEELERKNWELKKEIQELKR [4H1338-bH]
2: DKNQELEKEIEELKRKIWELEKKNQELER [4H3175-bH]
3: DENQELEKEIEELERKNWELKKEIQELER [4H1081-bH]
4: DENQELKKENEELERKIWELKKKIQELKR [4H1710-bH]
5: DKNQELEKEIEELKRENWELKKEIQELKR [4H3162-bH]
Rank by interaction score (largest to smallest). As an answer, provide the labels arranged in the order called for.
5, 1, 2, 4, 3
